Tested on: HIV-1 (NL4-3 strain)
Test summary: Assay for Inhibition of HIV Replication (kinetic assay, MT4-gag-GFP reporter cell line; VIKING)
Assay type: cell-based
Assay setup: MT4-GFP cells infected with HIV-1 NL4-3; 100% normal human serum (NHS); read-out: VIKING IP50 (nM) with 100% NHS
Entries annotated with measured IC50
State the result as a value with its unit after it.

Observe how each entry below is paired with its result.
COC1CC2C3OCCN3C(=O)c3c(O)c(=O)c(C(=O)NCc4ccc(F)cc4F)c1n32 (single isomer, unassigned) [Compound 78] | 534 nM
C[C@H]1CN2C(=O)c3c(O)c(=O)c(C(=O)NCc4cccc(Cl)c4F)c4n3C(CC4)C2N1S(C)(=O)=O (stereo partly shown) [Compound 119] | 445 nM
C[C@H]1CN2C(=O)c3c(O)c(=O)c(C(=O)NCc4cccc(Cl)c4F)c4n3C(CC4)C2N1 (stereo partly shown) [Compound 91] | 464 nM

Turning now to a further compound:
Answer with the recorded IC50 for the compound listed here: O=C(NCc1ccc(F)c(Cl)c1F)c1c2n3c(c(O)c1=O)C(=O)N1C4CCC(C4)OC1C3CC2 (stereo not shown) [Compound 156] 5270 nM

----------
Collected IC50 values appear next to each entry.
Test system: HIV-1 (NL4-3 strain)
Test summary: Assay for Inhibition of HIV Replication (kinetic assay, MT4-gag-GFP reporter cell line; VIKING)
Format: cell-based
Assay setup: MT4-GFP cells infected with HIV-1 NL4-3; 0% normal human serum (NHS); read-out: VIKING IP50 (nM) with 0% NHS
The response must be a number in nM with no trailing unit.

Past entries and their recorded results:
CCNC1CC2C3OCCCN3C(=O)c3c(O)c(=O)c(C(=O)NCc4ccc(F)cc4F)c1n32 (stereo not shown) [Compound 207] | 5.21
COC1CC2C3N(C)CCN3C(=O)c3c(O)c(=O)c(C(=O)NCc4ccc(F)cc4F)c1n32 (stereo not shown) [Compound 125] | 10.3
COC1CC2C3OCCN3C(=O)c3c(O)c(=O)c(C(=O)NCc4ccc(F)cc4F)c1n32 (single isomer, unassigned) [Compound 79] | 1.79
O=C(NCc1c(F)cccc1F)c1c2n3c(c(O)c1=O)C(=O)N1CCOC1C3CC2 (single isomer, unassigned) [Compound 17] | 7.09
CCNC1CC2C3OCCCN3C(=O)c3c(O)c(=O)c(C(=O)NCc4cccc(F)c4F)c1n32 (stereo not shown) [Compound 188] | 16.3
CN1CCCN2C(=O)c3c(O)c(=O)c(C(=O)NCc4cccc(Cl)c4F)c4n3C(CC4)C12 (single isomer, unassigned) [Compound 85] | 0.703
CN1CCN2C(=O)c3c(O)c(=O)c(C(=O)NCc4ccc(F)cc4F)c4n3C(CC4)C12C (stereo not shown) [Compound 140] | 0.557
CN1CCCN2C(=O)c3c(O)c(=O)c(C(=O)NCc4cccc(Cl)c4F)c4n3C(CC4)C12 (single isomer, unassigned) [Compound 84] | 0.762

Input C[C@H]1CCOC2C3CCc4c(C(=O)NCc5ccc(F)cc5F)c(=O)c(O)c(n43)C(=O)N21 (single isomer, unassigned) [Compound 63] , output reported IC50. 3.09

Quickly give me recorded IC50 for COC1CC2C3OCCN3C(=O)c3c(O)c(=O)c(C(=O)NCc4ccc(F)cc4F)c1n32 (single isomer, unassigned) [Compound 75] 4.99

Determine from records and report IC50 for C[C@H]1CN2C(=O)c3c(O)c(=O)c(C(=O)NCc4ccc(F)cc4F)c4n3C(CC4)C2N1 (stereo partly shown) [Compound 97] 4.3

Output measured IC50 for this item: O=C(NCc1cccc(Cl)c1F)c1c2n3c(c(O)c1=O)C(=O)N1C4CCC(C4)OC1C3CC2 (stereo not shown) [Compound 154] 4.14

Supply recorded IC50 for CCN1C[C@H](C)N2C(=O)c3c(O)c(=O)c(C(=O)NCc4cccc(Cl)c4F)c4n3C(CC4)C12 (stereo partly shown) [Compound 112] here. 0.806

Answer with the recorded IC50 of C[C@H]1CNC2C3CCc4c(C(=O)NCc5ccc(F)cc5F)c(=O)c(O)c(n43)C(=O)N21 (stereo partly shown) [Compound 100] only. 1.94

----------
System: HIV-1 (NL4-3 strain)
Test summary: Assay for Inhibition of HIV Replication (kinetic assay, MT4-gag-GFP reporter cell line; VIKING)
Format: cell-based
Assay setup: MT4-GFP cells infected with HIV-1 NL4-3; 0% normal human serum (NHS); read-out: VIKING IP50 (nM) with 0% NHS
Observed property: IC50 (nM)
Write the value in nM as a bare number.

// worked examples, IC50 included
C[C@H]1CN2C(=O)c3c(O)c(=O)c(C(=O)NCc4cccc(Cl)c4F)c4n3C(CC4)C2N1 (stereo partly shown) [Compound 93] | 1.14
O=C(NCc1cccc(Cl)c1F)c1c2n3c(c(O)c1=O)C(=O)N1CCOC1C3CC2 (single isomer, unassigned) [Compound 4] | 0.439
CCNC1CC2C3OCCCN3C(=O)c3c(O)c(=O)c(C(=O)NCc4ccc(F)cc4F)c1n32 (stereo not shown) [Compound 206] | 7.11

Name the recorded IC50 of the item O=C(NCc1cccc(Cl)c1F)c1c2n3c(c(O)c1=O)C(=O)N1C4CCC(C4)OC1C3CC2 (stereo not shown) [Compound 153] in your answer. 4.53

----------
System: HIV-1 (NL4-3 strain)
Test summary: Assay for Inhibition of HIV Replication (kinetic assay, MT4-gag-GFP reporter cell line; VIKING)
Assay type: cell-based
Assay setup: MT4-GFP cells infected with HIV-1 NL4-3; 0% normal human serum (NHS); read-out: VIKING IP50 (nM) with 0% NHS
compounds and their reported IC50

Would you please look over these solved cases?
O=C(NCc1c(F)cc(F)cc1F)c1c2n3c(c(O)c1=O)C(=O)N1C4CCC(C4)OC1C3CC2 (centres unmarked) [Compound 169] | 2.71 nM
C[C@H]1COC2C3CCc4c(C(=O)NCc5ccc(F)cc5F)c(=O)c(O)c(n43)C(=O)N21 (single isomer, unassigned) [Compound 28] | 0.401 nM
C[C@H]1CN2C(=O)c3c(O)c(=O)c(-c4nnc(Cc5ccc(F)cc5F)s4)c4n3C(CC4)C2N1 (some centres unmarked) [Compound 131] | 2.33 nM
C[C@H]1CNC2C3CCc4c(-c5nnc(Cc6ccc(F)cc6F)s5)c(=O)c(O)c(n43)C(=O)N21 (some centres unmarked) [Compound 129] | 15.3 nM
C[C@H]1CN2C(=O)c3c(O)c(=O)c(C(=O)NCc4cccc(Cl)c4F)c4n3C(CC4)C2N1S(C)(=O)=O (some centres unmarked) [Compound 119] | 8.77 nM

Return reported IC50 for target or system HIV-1 (NL4-3 strain), item O=C(NCc1ccc(F)cc1F)c1c2n3c(c(O)c1=O)C(=O)N1CCOC1C3CC2 (single isomer, unassigned) [Compound 6] . 0.825 nM

Recall the reported IC50 of O=C(NCc1ccc(F)cc1)c1c2n3c(c(O)c1=O)C(=O)N1C4CCC(C4)OC1C3CC2 (centres unmarked) [Compound 161] on HIV-1 (NL4-3 strain) and write it down. 2.67 nM

Report value only: IC50, HIV-1 (NL4-3 strain), O=C(NCc1ccc(F)cc1F)c1c2n3c(c(O)c1=O)C(=O)N1CCOC1C3CC2 (single isomer, unassigned) [Compound 7] 2.15 nM

GET IC50 | system: HIV-1 (NL4-3 strain) | item: O=C(NCc1cccc(Cl)c1F)c1c2n3c(c(O)c1=O)C(=O)N1CCCCOC1C3CC2 (single isomer, unassigned) [Compound 66] 1.48 nM

# return IC50 for O=C(NCc1cccc(Cl)c1F)c1c2n3c(c(O)c1=O)C(=O)N1CCOC1C3CC2 (single isomer, unassigned) [Compound 5] , test system: HIV-1 (NL4-3 strain) 0.409 nM

----------
System: HIV-1 (NL4-3 strain)
Test summary: Assay for Inhibition of HIV Replication (kinetic assay, MT4-gag-GFP reporter cell line; VIKING)
Type: cell-based
Assay setup: MT4-GFP cells infected with HIV-1 NL4-3; 100% normal human serum (NHS); read-out: VIKING IP50 (nM) with 100% NHS
Here the recorded IC50 is given for each entry.
Express the result in nM but write the number alone.

These recorded examples may help you get a feel for the data.
CN1CCCN2C(=O)c3c(O)c(=O)c(C(=O)NCc4ccc(F)cc4F)c4n3C(CC4)C12 (single isomer, unassigned) [Compound 82] | 550
O=C(NCc1cccc(Cl)c1F)c1c2n3c(c(O)c1=O)C(=O)N1C4CCC(C4)OC1C3CC2 (stereo not shown) [Compound 155] | 7460
CCN1C[C@H](C)N2C(=O)c3c(O)c(=O)c(C(=O)NCc4cccc(Cl)c4F)c4n3C(CC4)C12 (stereo partly shown) [Compound 112] | 40.4

Return IC50 (reported value) for this molecule: CCNC1CC2C3OCCCN3C(=O)c3c(O)c(=O)c(C(=O)NCc4cccc(Cl)c4F)c1n32 (stereo not shown) [Compound 200] 67.3
